System: Laminin 421/521
Experiment Description: Phage display library screening (Example 2), NEB laminin-binding peptides
Set-up: species or system human
Reported Conditions: Laminin 421/521, not 211 and 411; combined unique sequence count, Python/R script analysis
Assay Metric: Count
Answers are plain numbers.

The following substances have reported results that may help.
# Substance, Assay Metric, Test Result
data = [
    ("GAMMNSNNLVAR (Laminin 421/521-binding peptide)", "Count", 43),
    ("GDLLLKR (Laminin 421/521-binding peptide)", "Count", 47),
    ("SLNTTWVSPMMK (Laminin 421/521-binding peptide)", "Count", 37),
    ("YHLGPNQKMRTS (Laminin 421/521-binding peptide)", "Count", 48),
    ("HTQIHRL (Laminin 421/521-binding peptide)", "Count", 28),
    ("CTGRISKHC (Laminin 421/521-binding peptide)", "Count", 43),
    ("ASHSRPLMNYAP (Laminin 421/521-binding peptide)", "Count", 49),
    ("AVYPLDLGAGMR (Laminin 421/521-binding peptide)", "Count", 46),
]

Fill in Count for each of the 3 substances listed.
1. CTSSSHQTC (Laminin 421/521-binding peptide)
2. AKTQAPSNWSGV (Laminin 421/521-binding peptide)
3. QGHPFIY (Laminin 421/521-binding peptide)

Reply |
28
43
40

I would be grateful if you could provide Count for each of the following entries.
1. MTNSGAK (Laminin 421/521-binding peptide)
2. WSPANGWRHQTI (Laminin 421/521-binding peptide)
3. TALSHRHEAMRW (Laminin 421/521-binding peptide)
4. TAPRWTQ (Laminin 421/521-binding peptide)
5. VPVFLDQARVMK (Laminin 421/521-binding peptide)

Reply |
1. 35
2. 36
3. 28
4. 30
5. 53

# return Count for each item in the list
1. CQGWPRPMC (Laminin 421/521-binding peptide)
2. LGYGQGTPHRSN (Laminin 421/521-binding peptide)

Reply |
1. 30
2. 30

---

Tested on: Human Myelin PLP
Experiment Description: Phage display library screening (Example 2, Python script analysis), binding to Human Myelin PLP
Reported Conditions: combined unique sequence count, Python/R script analysis
Mark 1 (yes) for Count under 30, 0 (no) if at or over.

# Substance, Group Label
data = [
    ("GKSYSQI (Myelin PLP-binding peptide)", "0 (no)"),
    ("LALYARM (R3 Myelin PLP-binding peptide)", "0 (no)"),
    ("YPKLWTY (R3 Myelin PLP-binding peptide)", "0 (no)"),
]

Ask | Take the substance TTTIADM (Myelin PLP-binding peptide) and say whether its Count is less than 30.
Reply | 1 (yes)

Ask | I'd appreciate it if you could check whether GSAWKKH (Myelin PLP-binding peptide) has Count smaller than 30.
Reply | 0 (no)

Ask | is_below(Count, 30) for SMWSQFR (R3 Myelin PLP-binding peptide) ?
Reply | 0 (no)

Ask | Lab note: Count threshold 30. Does this substance come in strictly under it? IRPTHNG (Myelin PLP-binding peptide)
Reply | 1 (yes)

Ask | Hello, I'm reviewing records and need to know if Count of SVMWMTP (Myelin PLP-binding peptide) is below 30. Could you check?
Reply | 1 (yes)

Ask | Below 30 on Count? Entry TKITPHR (Myelin PLP-binding peptide)
Reply | 1 (yes)

Ask | Determine whether this substance shows Count lower than 30 (ties excluded): LHQTYRP (Myelin PLP-binding peptide)
Reply | 1 (yes)

Ask | I wonder whether AVVAMNK (Myelin PLP-binding peptide) has Count below 30. Can you tell?
Reply | 1 (yes)
